assay: n-Octanol-phosphate buffer partition coefficient, log P of the compound at pH 7.4 by HPLC method
Type: physicochemical
measured_quantity: logD

>>> print(df.to_string())
                                   compound  observed
0  Cc1ccc(C(C)C)c(OC(=O)c2ccccc2Nc2cccc(C)c2C)c1      5.45
1  Cc1cccc(Nc2ccccc2C(=O)OC2CC(C)CCC2C(C)C)c1C (configuration not stated) [Mefenamic acid-menthol]      4.98

----------
assay: Half life in Homo sapiens (human) 80% plasma at 10 mg at pH 7.4
Type: ADME, cell-free
applied_conditions: 80% human plasma
measured_quantity: half-life (h)

                                   molecule  unit_of_measurement  observed
0  Cc1ccc(C(C)C)c(OC(=O)c2ccccc2Nc2cccc(C)c2C)c1                    h      1.14
1  Cc1cccc(Nc2ccccc2C(=O)OC2CC(C)CCC2C(C)C)c1C (configuration not stated)                    h      1.43

----------
assay: Half life in isotonic phosphate buffer at 10 mg at pH 7.4
Format: physicochemical
measured_quantity: half-life (h)

>>> print(df.to_string())
                                   molecule  measured_quantity  unit_of_measurement  observed
0  Cc1ccc(C(C)C)c(OC(=O)c2ccccc2Nc2cccc(C)c2C)c1          half-life                    h      7.11
1  Cc1cccc(Nc2ccccc2C(=O)OC2CC(C)CCC2C(C)C)c1C (configuration not stated)          half-life                    h      8.87

----------
assay: Half life in hydrochloric acid buffer at 10 mg at pH 1.2
Type: physicochemical
measured_quantity: half-life (h)

In [3]: df
Out[3]:
                                   compound  observed
0  Cc1cccc(Nc2ccccc2C(=O)OC2CC(C)CCC2C(C)C)c1C (configuration not stated) [Mefenamic acid-menthol]      20.8
1  Cc1ccc(C(C)C)c(OC(=O)c2ccccc2Nc2cccc(C)c2C)c1      23.1

Attribution: ChEMBL document CHEMBL3046044
